# measuredOn: Pseudomonas aeruginosa LpxC enzyme (Pseudomonas aeruginosa, UniProt P47205)
# Construct: made in house; host or cells: E. coli
# Sequence (P47205 whole entry): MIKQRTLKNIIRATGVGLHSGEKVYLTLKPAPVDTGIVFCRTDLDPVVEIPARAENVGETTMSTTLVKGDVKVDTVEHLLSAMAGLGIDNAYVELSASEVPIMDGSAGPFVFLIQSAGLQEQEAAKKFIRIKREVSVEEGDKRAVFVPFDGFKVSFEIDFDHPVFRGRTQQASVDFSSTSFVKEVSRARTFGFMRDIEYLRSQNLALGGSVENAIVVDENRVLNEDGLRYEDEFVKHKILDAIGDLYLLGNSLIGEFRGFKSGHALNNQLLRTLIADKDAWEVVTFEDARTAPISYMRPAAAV
# assayNotes: IC50 assay, LpxC enzyme from P. aeruginosa (PA LpxC enzyme IC50)
# Assay type: biochemical
# experimentalSetup: P. aeruginosa LpxC 0.1 nM, 25° C., 1 hour, pH 8.0
metric: pIC50
# log scale: pIC50 equals minus log10 of the concentration in mol/L

Example cases with answers are listed next.
| smilesInput | measuredOn | pIC50 |
| --- | --- | --- |
| COc1ccc(-c2ccn(CC[C@](C)(C(=O)NO)S(C)(=O)=O)c(=O)c2)c(F)c1F | Pseudomonas aeruginosa LpxC enzyme (Pseudomonas aeruginosa, UniProt P47205) | 9.78 |
| COc1cnn(-c2ccc(-c3ccn(CC[C@](C)(C(=O)NO)S(C)(=O)=O)c(=O)c3)cc2)n1 | Pseudomonas aeruginosa LpxC enzyme (Pseudomonas aeruginosa, UniProt P47205) | 9.90 |

From here, focus on the item given below.
Short answer on Pseudomonas aeruginosa LpxC enzyme (Pseudomonas aeruginosa, UniProt P47205) for "C[C@@](CCn1ccc(-c2ccc(-c3nccs3)cc2)cc1=O)(C(=O)NO)S(C)(=O)=O" , pIC50: 9.75

* * *

As a worked illustration, we turn to MIC data collected for Escherichia coli EC-1: VOGEL, mouse virulent.
Numeric answer only, unit µg/mL assumed.

Solved entries (count: 4):
| smilesInput | val |
| --- | --- |
| COc1ccc(-c2ccn(CC[C@](C)(C(=O)NO)S(C)(=O)=O)c(=O)c2)c(F)c1F | 0.015 |
| C[C@@](CCn1ccc(-c2ccc(-n3nccn3)cc2)cc1=O)(C(=O)NO)S(C)(=O)=O | 0.06 |
| COc1cnn(-c2ccc(-c3ccn(CC[C@](C)(C(=O)NO)S(C)(=O)=O)c(=O)c3)cc2)n1 | 0.03 |
| C[C@@](CCn1ccc(-c2ccc(-c3nccs3)cc2)cc1=O)(C(=O)NO)S(C)(=O)=O | 0.06 |

// next item, MIC requested
Test item "C[C@@](CCn1cnc(-c2ccc(-n3nccn3)cc2)cc1=O)(C(=O)NO)S(C)(=O)=O" ; Escherichia coli EC-1: VOGEL, mouse virulent; reported MIC was 0.06

* * *

# Tested on: Pseudomonas aeruginosa UI-18, wild-type (PA-7)
# assayNotes: MIC determination (CLSI), PA-7
# Assay type: cell-based
# experimentalSetup: lower of duplicate values
metric: MIC (µg/mL)
API: value field is a number in µg/mL; no unit string.

Observe how each entry below is paired with its result.
| smilesInput | unitSymbol | MIC |
| --- | --- | --- |
| C[C@@](CCn1cnc(-c2ccc(-n3nccn3)cc2)cc1=O)(C(=O)NO)S(C)(=O)=O | µg/mL | 0.5 |
| COc1cnn(-c2ccc(-c3ccn(CC[C@](C)(C(=O)NO)S(C)(=O)=O)c(=O)c3)cc2)n1 | µg/mL | 0.5 |
| COc1ccc(-c2ccn(CC[C@](C)(C(=O)NO)S(C)(=O)=O)c(=O)c2)c(F)c1F | µg/mL | 1 |
| C[C@@](CCn1ccc(-c2ccc(-c3nccs3)cc2)cc1=O)(C(=O)NO)S(C)(=O)=O | µg/mL | 0.5 |

Please examine the following record next.
// MIC lookup, compound = "C[C@@](CCn1ccc(-c2ccc(-n3nccn3)cc2)cc1=O)(C(=O)NO)S(C)(=O)=O" , result: 0.5

Entry source: patent US20210017206A1
